- tested.system: human mitochondrial CIpP (HsCIpP) (Homo sapiens, UniProt Q16740)
- Construct: made in house; host or cells: E. coli SG1146 (BL21(DE3) ΔclpP::cat)
- Sequence (Q16740 57-277): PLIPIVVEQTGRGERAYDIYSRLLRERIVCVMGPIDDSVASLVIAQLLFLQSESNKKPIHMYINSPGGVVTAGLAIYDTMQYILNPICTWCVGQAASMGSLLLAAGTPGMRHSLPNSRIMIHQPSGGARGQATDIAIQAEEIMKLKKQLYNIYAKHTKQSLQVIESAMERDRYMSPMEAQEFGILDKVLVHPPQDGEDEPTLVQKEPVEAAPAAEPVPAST
- measurement.protocol: Screen of ADEP analogs against HsCIpP: relative degradation (RD) index, casein-FITC degradation relative to E. coli CIpAP
- Assay type: biochemical
- Set-up: key: casein-FITC degradation by HsClpP relative to EcClpAP
- assay.context: RD value at 25 μM of the ADEP analog; measure of ability to activate HsCIpP
Where a SMILES comes first, the peptide text is derived from it. Bridges are numbered along the chain shown (N, C = ends). [ ]: non-standard residue; d: D form. The star is where a group is joined. Phe(3,5-F2) = N[C@@H](Cc1cc(F)cc(F)c1)C(=O)O; Pro(4R-Me) = C[C@H]1CN[C@H](C(=O)O)C1; aThr = C[C@H](O)[C@H](N)C(=O)O; Pip = O=C(O)[C@@H]1CCCCN1; X2 = O=C(/C=C/CC1CCCCC1)*
property: Hs RD25
Could you respond with only the numeric value?

[[record]]
molecule = "C[C@@H]1C[C@H]2C(=O)O[C@@H](C)[C@H](NC(=O)[C@H](Cc3cc(F)cc(F)c3)NC(=O)/C=C/CC3CCCCC3)C(=O)N3CCC[C@H]3C(=O)N3CCCC[C@H]3C(=O)N[C@@H](C)C(=O)N2C1 [ADEP-17] (X2-[Phe(3,5-F2)][aThr]P[Pip]A[Pro(4R-Me)]; ester 2-C)"
property = "Hs RD25"
number = 1.02


Exam item: Query (molecule): C[C@@H]1NC(=O)[C@@H]2CCCCN2C(=O)[C@@H]2CCCN2C(=O)[C@@H](NC(=O)[C@H](Cc2ccccc2)NC(=O)c2ccc([N+](=O)[O-])cc2)COC(=O)[C@@H]2CCCN2C1=O ; field requested: Hs RD25
Marked response: 0.00

====

- tested.system: human mitochondrial CIpP (HsCIpP) (Homo sapiens, UniProt Q16740)
- Construct: made in house; host or cells: E. coli SG1146 (BL21(DE3) ΔclpP::cat)
- measurement.protocol: Screen of ADEP analogs against HsCIpP: relative degradation (RD) index, casein-FITC degradation relative to E. coli CIpAP
- Assay type: biochemical
- Design: key: casein-FITC degradation by HsClpP relative to EcClpAP
- assay.context: RD value at 25 μM of the ADEP analog; measure of ability to activate HsCIpP
Where a SMILES comes first, the peptide text is derived from it. Bridges are numbered along the chain shown (N, C = ends). [ ]: non-standard residue; d: D form. The star is where a group is joined. Octatrienoyl(2E,4E,6E) = C/C=C/C=C/C=C/C(=O)*; Phe(3,5-F2) = N[C@@H](Cc1cc(F)cc(F)c1)C(=O)O; Pip(4S-Me) = C[C@H]1CCN[C@H](C(=O)O)C1; Hexadienoyl(2E,4E) = C/C=C/C=C/C(=O)*; Pro(4R-Me) = C[C@H]1CN[C@H](C(=O)O)C1; Heptenoyl(2E) = CCCC/C=C/C(=O)*; NMeA = CN[C@@H](C)C(=O)O; X1 = CCC/C=C/C=C/C(=O)*; Cbz = O=C(OCc1ccccc1)*; Boc = CC(C)(C)OC(=O)*; X7 = CCC/C=C\C(=O)*; X8 = CCC/C=C/C(=O)*
property: Hs RD25

[[record]]
compound = "C/C=C/C=C/C(=O)N[C@@H](Cc1ccccc1)C(=O)N[C@H]1COC(=O)[C@@H]2CCCN2C(=O)[C@H](C)NC(=O)[C@H](C)N(C)C(=O)[C@@H]2CCCN2C1=O [ADEP-26] ({Hexadienoyl(2E,4E)}-FSP[NMeA]AP; ester 2-C)"
number = 0.86

[[record]]
compound = "C[C@@H]1NC(=O)[C@H](C)N(C)C(=O)[C@@H]2CCCN2C(=O)[C@@H](NC(=O)[C@H](Cc2ccccc2)NC(=O)OC(C)(C)C)COC(=O)[C@@H]2CCCN2C1=O [ADEP-34] (Boc-FSP[NMeA]AP; ester 2-C)"
number = 0.00

[[record]]
compound = "CCCC/C=C/C(=O)N[C@@H](Cc1cc(F)cc(F)c1)C(=O)N[C@H]1COC(=O)[C@@H]2C[C@@H](C)CN2C(=O)[C@H](C)NC(=O)[C@@H]2C[C@@H](C)CCN2C(=O)[C@@H]2CCCN2C1=O [ADEP-30] ({Heptenoyl(2E)}-[Phe(3,5-F2)]SP[Pip(4S-Me)]A[Pro(4R-Me)]; ester 2-C)"
number = 0.98

[[record]]
compound = "CCC/C=C/C=C/C(=O)N[C@@H](Cc1ccccc1)C(=O)N[C@H]1COC(=O)[C@@H]2C[C@@H](C)CN2C(=O)[C@H](C)NC(=O)[C@H](C)N(C)C(=O)[C@@H]2CCCN2C1=O [ADEP-04] (X1-FSP[NMeA]A[Pro(4R-Me)]; ester 2-C)"
number = 1.03

[[record]]
compound = "CCC/C=C/C(=O)N[C@@H](Cc1ccccc1)C(=O)N[C@H]1COC(=O)[C@@H]2CCCN2C(=O)[C@H](C)NC(=O)[C@H](C)N(C)C(=O)[C@@H]2CCCN2C1=O [ADEP-09] (X8-FSP[NMeA]AP; ester 2-C)"
number = 0.76


a. C[C@@H]1NC(=O)[C@H](C)N(C)C(=O)[C@@H]2CCCN2C(=O)[C@@H](NC(=O)[C@H](Cc2ccccc2)NC(=O)OCc2ccccc2)COC(=O)[C@@H]2CCCN2C1=O [ADEP-22] (Cbz-FSP[NMeA]AP; ester 2-C)
b. C/C=C/C=C/C=C/C(=O)N[C@@H](Cc1ccccc1)C(=O)N[C@H]1COC(=O)[C@@H]2CCCN2C(=O)[C@H](C)NC(=O)[C@H](C)N(C)C(=O)[C@@H]2CCCN2C1=O [ADEP-08] ({Octatrienoyl(2E,4E,6E)}-FSP[NMeA]AP; ester 2-C)
c. CCC/C=C\C(=O)N[C@@H](Cc1ccccc1)C(=O)N[C@H]1COC(=O)[C@@H]2CCCN2C(=O)[C@H](C)NC(=O)[C@H](C)N(C)C(=O)[C@@H]2CCCN2C1=O [ADEP-33] (X7-FSP[NMeA]AP; ester 2-C)
Exam item: Put the entries in order of Hs RD25, starting with the largest number. Answer format: the labels, ordered as requested.
Marked response: b, c, a
(b: 0.97, c: 0.07, a: 0.00)
